Where a name gives a salt, the structure may show the parent alone.
Dear all, this message contains IC50 results, target or system PDE10A (human) (Homo sapiens, UniProt Q9Y233).
Property Label: IC50

O=C1c2c(cccc2-c2cncnc2)CN1CCc1nc2ccccc2[nH]1 [Example 312, trifluoroacetate]: < 100 nM
O=C1c2cccc(-c3ccnnc3)c2CN1CCc1ccc2ccccc2n1: 100 to 200 nM
O=C1c2c(cccc2-c2ccc(F)cc2)CN1CCc1cn2ccccc2n1: 200 to 500 nM
CN(C)CCn1c(CCN2Cc3cccc(-c4ccncc4)c3C2=O)nc2ccccc21 [Example 293, trifluoroacetate]: < 100 nM
CCCn1c(CCN2Cc3cccc(N4CCOCC4)c3C2=O)nc2ccccc21 [Example 305, trifluoroacetate]: 200 to 500 nM
COc1ccc2nc(CCN3Cc4cccc(N5CCOCC5)c4C3=O)ccc2c1 [Example 116, hydrochloride]: < 100 nM
COc1ccc(-c2cccnc2)c2c1C(=O)N(CCc1cn3ccccc3n1)C2 [compound 456, trifluoroacetate]: < 100 nM
Cn1nccc1-c1ccnc2c1CN(CCc1ccc3ccccc3n1)C2=O [compound 459, trifluoroacetate]: 200 to 500 nM
O=C1c2nccc(-c3ccncc3)c2CN1CCc1ccc2ccccc2n1: < 100 nM
O=C1c2c(cccc2-c2ccncc2)CN1CCc1nc2ccccc2n1CCN1CCOCC1 [Example 292, trifluoroacetate]: < 100 nM
O=C1c2c(-c3ccncc3)ccnc2CN1CCc1ccc(-c2ccccc2)cn1 [compound 488, trifluoroacetate]: 200 to 500 nM
COc1ccnc2c1C(=O)N(CCc1ccc3ccccc3n1)C2: < 100 nM
O=C1c2c(-c3ccoc3)ccnc2CN1CCc1nc2ccccc2s1 [compound 422, trifluoroacetate]: < 100 nM
COc1ccc(N2CCOCC2)c2c1CN(CCc1cn3ccccc3n1)C2=O [Example 264, trifluoroacetate]: < 100 nM
O=C1c2c(-c3ccoc3)ccnc2CN1CCc1cn2ccccc2n1: < 100 nM
O=C1c2cccc(-c3ccncc3)c2CN1CCc1ccc2ccccc2n1: < 100 nM
O=C1c2cccc(-c3ccc(F)cc3)c2CN1CCc1ccc2ccccc2n1 [Example 212, trifluoroacetate]: 200 to 500 nM
COCCCOc1ccc(-c2ccncc2)c2c1CN(CCc1ccc3ccccc3n1)C2=O: < 100 nM
COc1ncc(-c2cccc3c2C(=O)N(CCc2ccc4ccccc4n2)C3)cn1: 100 to 200 nM
COc1ccc(-c2ccnn2C)c2c1C(=O)N(CCc1cn3ccccc3n1)C2 [compound 464, trifluoroacetate]: < 100 nM
Cn1c(CCN2Cc3cccc(-c4ccncc4)c3C2=O)nc2c(F)cccc21 [Example 300, trifluoroacetate]: < 100 nM
CN1CCN(S(=O)(=O)c2cccc3c2CN(c2cccc4c2CN(CCc2ccc5ccccc5n2)C4=O)CC3)CC1: 200 to 500 nM
COc1ccc(-c2ccncc2)c2c1CN(CCc1nc3ccccc3n1C)C2=O: < 100 nM
O=C1c2c(cc(F)cc2-c2ccncc2)CN1CCc1ccc2ccccc2n1: < 100 nM
O=C1c2c(cccc2-c2ccc3cn[nH]c3c2)CN1CCc1cn2ccccc2n1: < 100 nM
O=C1c2c(-c3cncnc3)ccc(F)c2CN1CCc1ccc2ccccc2n1 [compound 443, trifluoroacetate]: < 100 nM
Cc1cccnc1CCN1Cc2nccc(N3CCOCC3)c2C1=O: 100 to 200 nM
O=C1c2c(cccc2N2CCOCC2)CN1CCc1nc2ccccc2s1 [Example 263, trifluoroacetate]: < 100 nM
O=C1c2c(cccc2-c2ccc3[nH]c(=O)[nH]c3c2)CN1CCc1cn2ccccc2n1: < 100 nM
O=C1c2c(-c3ccc(F)cc3)ccnc2CN1CCc1nc2ccccc2s1 [compound 542, trifluoroacetate]: 100 to 200 nM
CC(C)n1c(CCN2Cc3cccc(N4CCOCC4)c3C2=O)nc2ccccc21 [Example 304, trifluoroacetate]: 100 to 200 nM
